Taken from patent US20260347347A1.

- System: human plasmin (Homo sapiens)
- Sequence (P00747 581-810 limits assumed): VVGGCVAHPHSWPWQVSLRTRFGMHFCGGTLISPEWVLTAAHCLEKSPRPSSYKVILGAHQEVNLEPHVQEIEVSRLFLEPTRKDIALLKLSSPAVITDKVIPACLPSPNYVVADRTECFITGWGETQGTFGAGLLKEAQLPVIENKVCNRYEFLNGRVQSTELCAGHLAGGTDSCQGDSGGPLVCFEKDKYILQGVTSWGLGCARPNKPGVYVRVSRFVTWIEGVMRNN
- Sequence (P00747 97-580 partner limits assumed): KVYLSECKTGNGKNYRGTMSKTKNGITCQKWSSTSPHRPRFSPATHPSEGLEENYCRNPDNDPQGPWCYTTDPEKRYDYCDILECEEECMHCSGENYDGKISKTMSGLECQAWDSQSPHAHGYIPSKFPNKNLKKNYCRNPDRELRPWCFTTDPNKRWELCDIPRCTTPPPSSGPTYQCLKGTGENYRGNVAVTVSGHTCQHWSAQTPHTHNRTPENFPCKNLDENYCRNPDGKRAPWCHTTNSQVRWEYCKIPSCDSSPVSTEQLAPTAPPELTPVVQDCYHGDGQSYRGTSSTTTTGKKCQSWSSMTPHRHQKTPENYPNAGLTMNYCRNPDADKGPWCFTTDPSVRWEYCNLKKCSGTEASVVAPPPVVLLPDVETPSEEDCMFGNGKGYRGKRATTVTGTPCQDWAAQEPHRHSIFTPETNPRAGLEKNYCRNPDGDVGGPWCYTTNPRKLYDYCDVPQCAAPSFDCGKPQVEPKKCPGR
- Protocol details: Determination of related protease inhibition: plasmin
- Assay type: biochemical
- Condition description: fluorogenic substrate at Km concentration, 25 °C; read-out: IC50 (human plasmin)
pIC50: −log10 of the molar value.
Items are presented alongside their recorded pIC50.
Assay readout: pIC50

item_smiles=Cn1ccc(OCC23CN(C(=O)CC4CCCCC4)C(CNc4cccc5c(N)nccc45)(C2)C3)cc1=O measured="5.00 to 5.52"
item_smiles=Cc1cc(OCC23CN(C(=O)C4CC5(CCOCC5)C4)C(CNc4cccc5c(N)nccc45)(C2)C3)cc(=O)n1C measured="4.40 to 5.00"

###

- System: Human Factor XIIa (Homo sapiens)
- Construct: purchased Enzyme Research Laboratories
- Sequence (P00748 373-615 limits assumed): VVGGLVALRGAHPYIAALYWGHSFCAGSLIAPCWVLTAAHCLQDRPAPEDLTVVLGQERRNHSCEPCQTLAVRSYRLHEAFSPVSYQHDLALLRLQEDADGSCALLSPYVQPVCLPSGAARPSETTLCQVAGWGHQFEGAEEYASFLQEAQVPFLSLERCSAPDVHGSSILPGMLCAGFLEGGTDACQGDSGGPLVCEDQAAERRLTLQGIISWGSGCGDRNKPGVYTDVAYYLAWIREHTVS
- Sequence (P00748 20-372 partner limits assumed): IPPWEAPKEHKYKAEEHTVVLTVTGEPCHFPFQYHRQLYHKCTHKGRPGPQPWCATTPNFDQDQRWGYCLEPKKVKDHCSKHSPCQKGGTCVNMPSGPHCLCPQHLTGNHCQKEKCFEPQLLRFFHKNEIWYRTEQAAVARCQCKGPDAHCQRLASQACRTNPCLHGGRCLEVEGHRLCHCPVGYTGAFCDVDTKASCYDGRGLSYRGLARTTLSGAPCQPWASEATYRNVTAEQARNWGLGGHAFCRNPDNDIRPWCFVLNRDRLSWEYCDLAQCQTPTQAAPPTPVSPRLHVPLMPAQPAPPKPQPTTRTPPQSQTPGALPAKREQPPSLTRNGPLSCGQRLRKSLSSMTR
- Protocol details: Determination of FXIIa inhibition (in vitro IC50 assay, fluorogenic substrate H-DPro-Phe-Arg-AFC)
- Type: biochemical
- Condition description: human Factor XIIa; fluorogenic substrate H-DPro-Phe-Arg-AFC at Km concentration; 5 min, 25 °C; class symbols; read-out: Human FXIIa IC50
Items are presented alongside their recorded IC50.
Assay readout: IC50

item_smiles=C[C@@H](c1ccccc1)N(C)C(=O)N1CC2(COc3ccn(C)c(=O)c3)CC1(CNc1cccc3c(N)nccc13)C2 assay_readout=IC50 measured="10 to 100 nM"
item_smiles=Cn1ccc(OCC23CN(C(=O)N4CC5(CCC5)C4)C(CNc4cccc5c(N)nccc45)(C2)C3)cc1=O assay_readout=IC50 measured="10 to 100 nM"
item_smiles=Cn1ccc(OCC23CN(C(=O)NC(C)(C)c4ccccc4)C(CNc4cccc5c(N)nccc45)(C2)C3)cc1=O assay_readout=IC50 measured="1 to 10 nM"
item_smiles=Cn1ccc(OCC23CN(C(=O)C4(c5ccccc5)CC4)C(CNc4cccc5c(N)nccc45)(C2)C3)cc1=O assay_readout=IC50 measured="100 to 300 nM"
item_smiles=C[C@H](C(=O)N1CC2(COc3ccn(C)c(=O)c3)CC1(CNc1cccc3c(N)nccc13)C2)c1ccccc1 assay_readout=IC50 measured="10 to 100 nM"
item_smiles=Cn1ccc(OCC23CN(C(=O)NCCCOCc4ccccc4)C(CNc4cccc5c(N)nccc45)(C2)C3)cc1=O assay_readout=IC50 measured="10 to 100 nM"
item_smiles=Cn1ccc(OCC23CN(C(=O)NC4C(C)(C)C4(C)C)C(CNc4cccc5c(N)nccc45)(C2)C3)cc1=O assay_readout=IC50 measured="10 to 100 nM"
